# method.summary: Clearance in rat liver microsomes at 1 uM measured after 90 mins in presence of NADPH regenerating system by LC-MS/MS analysis
# Type: ADME, microsome
# assay.setup: read-out: CLH
metric.name: microsomal CLint at 1 µM (µL/min/mg)

molecule="COc1ccc2[nH]c([S+]([O-])Cc3ncc(C)c(OC)c3C)nc2c1 (centres undefined)" quantitative_result=163
molecule=Clc1ccc(CCN2CCN(c3nsc4ccccc34)CC2)cc1Cl quantitative_result=262
molecule=Cc1ccc(Sc2ccccc2N2CCNCC2)c(C)c1 quantitative_result=153
molecule="OC(CN1CCN(c2ccccc2)CC1)c1ccc(Cl)c(Cl)c1 (centres undefined)" quantitative_result=226

====

# target.under.test: 5-hydroxytryptamine receptor 7 (Homo sapiens)
# method.summary: Displacement of [3H]-LSD from recombinant human 5-HT7 receptor expressed in CHO cell membranes measured after 60 mins by scintillation counting method
metric.name: Ki (nM)

Look over these answered cases.
compound=Cc1ccc(Sc2ccccc2N2CCNCC2)c(C)c1 target_under_test="5-hydroxytryptamine receptor 7 (Homo sapiens)" quantitative_result=26
compound=Clc1ccc(CCN2CCN(c3ccccc3-c3ccccc3)CC2)cc1Cl target_under_test="5-hydroxytryptamine receptor 7 (Homo sapiens)" quantitative_result=0.75

[I] OC(CN1CCN(c2ccccc2)CC1)c1ccc(Cl)c(Cl)c1 (centres undefined)
[II] Clc1ccc(CCN2CCN(c3nsc4ccccc34)CC2)cc1Cl
[ask] Which of the two gives a bigger number for Ki: I or II ? Answer format: the label of the selected item.
[reply] II
(II: 12 nM, I: 3.2 nM)

====

# target.under.test: Sodium-dependent serotonin transporter (Rattus norvegicus) (UniProt P31652)
# Sequence (P31652 whole entry): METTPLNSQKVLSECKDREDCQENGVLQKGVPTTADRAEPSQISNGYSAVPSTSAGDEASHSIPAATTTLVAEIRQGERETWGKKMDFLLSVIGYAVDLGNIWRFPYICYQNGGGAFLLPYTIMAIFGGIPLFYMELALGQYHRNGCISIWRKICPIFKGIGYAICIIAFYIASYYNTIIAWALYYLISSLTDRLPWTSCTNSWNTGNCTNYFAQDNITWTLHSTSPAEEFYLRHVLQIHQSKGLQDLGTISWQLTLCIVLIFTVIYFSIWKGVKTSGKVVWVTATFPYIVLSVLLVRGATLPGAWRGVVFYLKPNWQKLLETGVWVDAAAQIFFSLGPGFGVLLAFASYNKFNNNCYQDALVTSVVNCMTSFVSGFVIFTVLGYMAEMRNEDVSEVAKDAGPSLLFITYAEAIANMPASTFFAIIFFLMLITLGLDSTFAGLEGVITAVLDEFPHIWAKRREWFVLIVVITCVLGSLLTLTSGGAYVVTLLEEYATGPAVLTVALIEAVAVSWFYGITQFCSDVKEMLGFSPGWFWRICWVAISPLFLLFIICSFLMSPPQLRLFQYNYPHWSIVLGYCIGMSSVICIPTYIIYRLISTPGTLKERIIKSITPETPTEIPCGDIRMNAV
# method.summary: Inhibition of SERT in rat brain synaptosomes assessed as reduction in [3H]-5-HT uptake at 10 uM measured after 15 mins by scintillation counting method relative to control
# Type: subcellular
metric.name: inhibition (%)

compound=Fc1ccc(-c2ccccc2N2CCN(CCc3ccc(Cl)c(Cl)c3)CC2)cc1 target_under_test="Sodium-dependent serotonin transporter (Rattus norvegicus) (UniProt P31652)" quantitative_result=92.1
compound=Cc1ccc(-c2ccccc2N2CCN(CCc3ccc(Cl)c(Cl)c3)CC2)cc1 target_under_test="Sodium-dependent serotonin transporter (Rattus norvegicus) (UniProt P31652)" quantitative_result=65.8

[I] OC(CCN1CCN(c2ccccc2-c2ccccc2)CC1)c1ccc(Cl)c(Cl)c1 (stereo not given)
[II] COc1ccc(-c2ccccc2N2CCN(CCc3ccc(Cl)c(Cl)c3)CC2)cc1
[ask] Record comparison, field inhibition: mark the lower of I and II . Answer format: the label of the selected item.
[reply] II
(II: 66.1%, I: 98.9%)

====

# target.under.test: 5-hydroxytryptamine receptor 7 (Homo sapiens, UniProt P34969)
# Sequence (P34969 whole entry): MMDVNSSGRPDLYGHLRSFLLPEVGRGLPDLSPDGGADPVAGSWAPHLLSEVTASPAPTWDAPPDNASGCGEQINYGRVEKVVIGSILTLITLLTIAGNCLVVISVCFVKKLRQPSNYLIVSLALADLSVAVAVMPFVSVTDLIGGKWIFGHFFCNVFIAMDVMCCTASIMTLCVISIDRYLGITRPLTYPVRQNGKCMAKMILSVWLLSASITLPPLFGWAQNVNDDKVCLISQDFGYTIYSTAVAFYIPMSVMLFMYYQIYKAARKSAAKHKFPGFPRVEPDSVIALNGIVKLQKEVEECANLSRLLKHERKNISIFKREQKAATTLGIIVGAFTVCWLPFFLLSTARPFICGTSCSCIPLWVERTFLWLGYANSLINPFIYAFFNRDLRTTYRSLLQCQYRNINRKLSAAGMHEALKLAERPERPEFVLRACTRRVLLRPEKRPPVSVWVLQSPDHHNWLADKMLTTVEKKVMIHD
# method.summary: Displacement of [3H]-LSD from recombinant human 5-HT7 receptor expressed in CHO cell membranes at 10 uM measured after 60 mins by scintillation counting method
metric.name: inhibition (%)

Look over these answered cases.
molecule="OC(CN1CCN(c2ccccc2)CC1)c1ccc(Cl)c(Cl)c1 (stereo unspecified)" metric_name=inhibition quantitative_result=99.8
molecule=Clc1ccc(CCN2CCN(c3nsc4ccccc34)CC2)cc1Cl metric_name=inhibition quantitative_result=96
molecule="CSc1ccccc1N1CCN(CCC(O)c2ccc(Cl)c(Cl)c2)CC1 (stereo unspecified)" metric_name=inhibition quantitative_result=101
molecule=Cc1ccc(-c2ccccc2N2CCN(CCc3ccc(Cl)c(Cl)c3)CC2)c(C)c1 metric_name=inhibition quantitative_result=93.5
molecule=Fc1cccc(-c2ccccc2N2CCN(CCc3ccc(Cl)c(Cl)c3)CC2)c1 metric_name=inhibition quantitative_result=96.4

[a] Oc1ccccc1N1CCN(CCC(O)c2ccc(Cl)c(Cl)c2)CC1 (stereo unspecified)
[b] OC(CCN1CCN(c2cccc(-c3ccccc3)c2)CC1)c1ccc(Cl)c(Cl)c1 (stereo unspecified)
[ask] Record comparison, field inhibition: mark the lower of a and b . Answer format: the label of the selected item.
[reply] b
(b: 69.8%, a: 102%)

====

# target.under.test: 5-hydroxytryptamine receptor 1A (Homo sapiens)
# Sequence (whole entry): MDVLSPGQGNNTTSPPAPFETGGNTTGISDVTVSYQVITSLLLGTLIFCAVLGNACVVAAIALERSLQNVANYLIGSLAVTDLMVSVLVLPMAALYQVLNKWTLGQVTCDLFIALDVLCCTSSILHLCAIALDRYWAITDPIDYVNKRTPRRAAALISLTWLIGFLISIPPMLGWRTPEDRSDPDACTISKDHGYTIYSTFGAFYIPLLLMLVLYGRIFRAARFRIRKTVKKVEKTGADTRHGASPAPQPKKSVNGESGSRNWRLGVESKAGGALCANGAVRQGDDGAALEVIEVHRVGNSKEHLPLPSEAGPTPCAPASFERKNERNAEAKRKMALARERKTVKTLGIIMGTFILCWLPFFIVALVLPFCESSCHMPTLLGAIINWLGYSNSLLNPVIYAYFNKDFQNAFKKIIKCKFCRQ
# method.summary: Displacement of [3H]8-OH-DPAT from recombinant human 5-HT1A receptor expressed in HEK293 cell membranes at 10 uM measured after 60 mins by scintillation counting method
metric.name: inhibition (%)

molecule="Oc1ccccc1N1CCN(CCC(O)c2ccc(Cl)c(Cl)c2)CC1 (stereo unspecified)" unit_abbrev=% quantitative_result=99.4
molecule=Clc1ccc(CCN2CCN(c3nsc4ccccc34)CC2)cc1Cl unit_abbrev=% quantitative_result=98.7
molecule=Fc1cccc(-c2ccccc2N2CCN(CCc3ccc(Cl)c(Cl)c3)CC2)c1 unit_abbrev=% quantitative_result=99.7
molecule="OC(CCN1CCN(c2cccc(-c3ccccc3)c2)CC1)c1ccc(Cl)c(Cl)c1 (stereo unspecified)" unit_abbrev=% quantitative_result=91.5
molecule=Clc1ccc(CCN2CCN(c3ccccc3-c3ccccc3)CC2)cc1Cl unit_abbrev=% quantitative_result=97.8
molecule=Cc1cccc(-c2ccccc2N2CCN(CCc3ccc(Cl)c(Cl)c3)CC2)c1 unit_abbrev=% quantitative_result=98.4
molecule="COc1ccccc1N1CCN(CCC(O)c2ccc(Cl)c(Cl)c2)CC1 (stereo unspecified)" unit_abbrev=% quantitative_result=99.3
molecule=Cc1ccc(-c2ccccc2N2CCN(CCc3ccc(Cl)c(Cl)c3)CC2)c(C)c1 unit_abbrev=% quantitative_result=83.2
molecule=Fc1ccc(-c2ccccc2N2CCN(CCc3ccc(Cl)c(Cl)c3)CC2)cc1 unit_abbrev=% quantitative_result=98.8
molecule=Cc1ccccc1-c1ccccc1N1CCN(CCc2ccc(Cl)c(Cl)c2)CC1 unit_abbrev=% quantitative_result=93.9
molecule="CSc1ccccc1N1CCN(CCC(O)c2ccc(Cl)c(Cl)c2)CC1 (stereo unspecified)" unit_abbrev=% quantitative_result=99.9
molecule=Cc1ccc(-c2ccccc2N2CCN(CCc3ccc(Cl)c(Cl)c3)CC2)cc1C unit_abbrev=% quantitative_result=96.8
molecule=Cc1ccc(-c2ccccc2N2CCN(CCc3ccc(Cl)c(Cl)c3)CC2)cc1 unit_abbrev=% quantitative_result=99.5
molecule=COc1ccc(-c2ccccc2N2CCN(CCc3ccc(Cl)c(Cl)c3)CC2)cc1 unit_abbrev=% quantitative_result=98.7
molecule="OC(CN1CCN(c2ccccc2)CC1)c1ccc(Cl)c(Cl)c1 (stereo unspecified)" unit_abbrev=% quantitative_result=98.5
molecule="OC(CCN1CCN(c2ccccc2-c2ccccc2)CC1)c1ccc(Cl)c(Cl)c1 (stereo unspecified)" unit_abbrev=% quantitative_result=98.9

====

# target.under.test: Sodium-dependent serotonin transporter (Homo sapiens)
# Sequence (P31645 whole entry): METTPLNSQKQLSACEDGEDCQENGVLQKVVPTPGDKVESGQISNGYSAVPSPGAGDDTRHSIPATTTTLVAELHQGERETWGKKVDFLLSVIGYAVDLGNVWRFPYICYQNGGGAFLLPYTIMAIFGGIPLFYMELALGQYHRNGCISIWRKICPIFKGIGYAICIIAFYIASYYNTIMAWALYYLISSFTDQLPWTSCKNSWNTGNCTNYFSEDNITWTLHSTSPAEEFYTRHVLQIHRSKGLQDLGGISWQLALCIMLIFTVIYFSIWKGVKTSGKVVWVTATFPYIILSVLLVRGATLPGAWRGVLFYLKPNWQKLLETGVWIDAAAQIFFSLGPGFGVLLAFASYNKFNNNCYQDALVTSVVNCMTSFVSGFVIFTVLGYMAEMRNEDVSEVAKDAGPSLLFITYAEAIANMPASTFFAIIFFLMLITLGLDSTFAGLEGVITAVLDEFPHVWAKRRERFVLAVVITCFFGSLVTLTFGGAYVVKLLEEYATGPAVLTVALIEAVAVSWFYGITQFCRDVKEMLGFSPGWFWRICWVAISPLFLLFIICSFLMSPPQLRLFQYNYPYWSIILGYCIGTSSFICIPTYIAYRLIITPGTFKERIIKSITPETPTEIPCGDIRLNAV
metric.name: IC50 (µM)
All answers are understood in µM, so give the number only.

[ask] Identify the measured IC50 of "COc1ccccc1N1CCN(CCCN2CCOc3ccccc32)CC1" for Sodium-dependent serotonin transporter (Homo sapiens).
[reply] 0.195

====

# method.summary: Half-life in rat liver microsomes at 1 uM in presence of NADPH regenerating system by LC-MS/MS analysis
# Assay type: ADME, microsome
metric.name: half-life at 1 µM (min)

molecule="OC(CN1CCN(c2ccccc2)CC1)c1ccc(Cl)c(Cl)c1 (centres undefined)" metric_name="half-life at 1 µM" quantitative_result=6.1

[P] COc1ccc2[nH]c([S+]([O-])Cc3ncc(C)c(OC)c3C)nc2c1 (centres undefined)
[Q] Clc1ccc(CCN2CCN(c3nsc4ccccc34)CC2)cc1Cl
[ask] Which of the two gives a bigger number for half-life at 1 µM: P or Q ? Answer format: the label of the selected item.
[reply] P
(P: 8.5 min, Q: 5.3 min)

====

# target.under.test: Sodium-dependent serotonin transporter (Rattus norvegicus)
# method.summary: Inhibition of SERT in rat brain synaptosomes assessed as reduction in [3H]-5-HT uptake at 10 uM measured after 15 mins by scintillation counting method relative to control
# Type: subcellular
metric.name: inhibition (%)

molecule="OC(CCN1CCN(c2cccc(-c3ccccc3)c2)CC1)c1ccc(Cl)c(Cl)c1 (configuration not stated)" target_under_test="Sodium-dependent serotonin transporter (Rattus norvegicus)" unit_abbrev=% quantitative_result=105
molecule=Clc1ccc(CCN2CCN(c3ccccc3-c3ccccc3)CC2)cc1Cl target_under_test="Sodium-dependent serotonin transporter (Rattus norvegicus)" unit_abbrev=% quantitative_result=104
molecule=Cc1cccc(-c2ccccc2N2CCN(CCc3ccc(Cl)c(Cl)c3)CC2)c1 target_under_test="Sodium-dependent serotonin transporter (Rattus norvegicus)" unit_abbrev=% quantitative_result=72.3
molecule=Fc1cccc(-c2ccccc2N2CCN(CCc3ccc(Cl)c(Cl)c3)CC2)c1 target_under_test="Sodium-dependent serotonin transporter (Rattus norvegicus)" unit_abbrev=% quantitative_result=97.2
molecule="OC(CN1CCN(c2ccccc2)CC1)c1ccc(Cl)c(Cl)c1 (configuration not stated)" target_under_test="Sodium-dependent serotonin transporter (Rattus norvegicus)" unit_abbrev=% quantitative_result=112
molecule=Clc1ccc(CCN2CCN(c3nsc4ccccc34)CC2)cc1Cl target_under_test="Sodium-dependent serotonin transporter (Rattus norvegicus)" unit_abbrev=% quantitative_result=102
molecule="CSc1ccccc1N1CCN(CCC(O)c2ccc(Cl)c(Cl)c2)CC1 (configuration not stated)" target_under_test="Sodium-dependent serotonin transporter (Rattus norvegicus)" unit_abbrev=% quantitative_result=89
